The measurements presented in this section are drawn from patent US6908742B2.

- target: A1 adenosine receptors in membranes from feline PAECs (Felis catus)
- Sequence (A0ABI7XJE9 1-326): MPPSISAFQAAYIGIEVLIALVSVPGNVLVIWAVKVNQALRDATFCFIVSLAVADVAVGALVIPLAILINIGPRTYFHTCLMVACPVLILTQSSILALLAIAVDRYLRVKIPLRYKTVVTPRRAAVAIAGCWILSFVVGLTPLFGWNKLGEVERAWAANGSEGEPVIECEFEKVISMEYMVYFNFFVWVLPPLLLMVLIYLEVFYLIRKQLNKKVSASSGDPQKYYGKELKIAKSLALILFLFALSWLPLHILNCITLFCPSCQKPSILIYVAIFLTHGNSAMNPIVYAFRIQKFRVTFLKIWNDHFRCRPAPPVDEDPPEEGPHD
- method-description: Saturation experiments with [3H] DPCPX in feline PAEC membranes
- Type: binding
- test-parameters: hypoxia
readout-kind: Kd (nM)
Answers are plain numbers, in nM.

For record CCCn1c(=O)c2[nH]c(C3CCCC3)nc2n(CCC)c1=O [[^3H]-DPCPX] the listed Kd is 0.26

* * *

- target: UniProt:A0A1U8BVR4
- Sequence (A0A1U8BVR4 1-326): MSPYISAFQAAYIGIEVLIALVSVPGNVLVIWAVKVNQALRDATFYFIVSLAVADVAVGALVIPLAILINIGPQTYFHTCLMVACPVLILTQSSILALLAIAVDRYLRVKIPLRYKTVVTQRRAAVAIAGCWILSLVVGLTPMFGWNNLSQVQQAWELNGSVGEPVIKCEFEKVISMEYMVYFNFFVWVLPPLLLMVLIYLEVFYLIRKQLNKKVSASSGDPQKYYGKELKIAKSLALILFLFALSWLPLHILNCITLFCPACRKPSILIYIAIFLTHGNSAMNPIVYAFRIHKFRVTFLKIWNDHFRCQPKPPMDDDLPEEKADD
readout-kind: pKd
Answers are plain numbers, as −log10 of the molar value.

For record CCCn1c(=O)c2[nH]c(C3CCCC3)nc2n(CCC)c1=O [[^3H]-DPCPX] the listed pKd is 9.49
